Molecular target: Ba/F3-FL-EGFR-L858R (Homo sapiens, UniProt P00533, L858R, cells depend on it)
Sequence (P00533 whole entry L858R): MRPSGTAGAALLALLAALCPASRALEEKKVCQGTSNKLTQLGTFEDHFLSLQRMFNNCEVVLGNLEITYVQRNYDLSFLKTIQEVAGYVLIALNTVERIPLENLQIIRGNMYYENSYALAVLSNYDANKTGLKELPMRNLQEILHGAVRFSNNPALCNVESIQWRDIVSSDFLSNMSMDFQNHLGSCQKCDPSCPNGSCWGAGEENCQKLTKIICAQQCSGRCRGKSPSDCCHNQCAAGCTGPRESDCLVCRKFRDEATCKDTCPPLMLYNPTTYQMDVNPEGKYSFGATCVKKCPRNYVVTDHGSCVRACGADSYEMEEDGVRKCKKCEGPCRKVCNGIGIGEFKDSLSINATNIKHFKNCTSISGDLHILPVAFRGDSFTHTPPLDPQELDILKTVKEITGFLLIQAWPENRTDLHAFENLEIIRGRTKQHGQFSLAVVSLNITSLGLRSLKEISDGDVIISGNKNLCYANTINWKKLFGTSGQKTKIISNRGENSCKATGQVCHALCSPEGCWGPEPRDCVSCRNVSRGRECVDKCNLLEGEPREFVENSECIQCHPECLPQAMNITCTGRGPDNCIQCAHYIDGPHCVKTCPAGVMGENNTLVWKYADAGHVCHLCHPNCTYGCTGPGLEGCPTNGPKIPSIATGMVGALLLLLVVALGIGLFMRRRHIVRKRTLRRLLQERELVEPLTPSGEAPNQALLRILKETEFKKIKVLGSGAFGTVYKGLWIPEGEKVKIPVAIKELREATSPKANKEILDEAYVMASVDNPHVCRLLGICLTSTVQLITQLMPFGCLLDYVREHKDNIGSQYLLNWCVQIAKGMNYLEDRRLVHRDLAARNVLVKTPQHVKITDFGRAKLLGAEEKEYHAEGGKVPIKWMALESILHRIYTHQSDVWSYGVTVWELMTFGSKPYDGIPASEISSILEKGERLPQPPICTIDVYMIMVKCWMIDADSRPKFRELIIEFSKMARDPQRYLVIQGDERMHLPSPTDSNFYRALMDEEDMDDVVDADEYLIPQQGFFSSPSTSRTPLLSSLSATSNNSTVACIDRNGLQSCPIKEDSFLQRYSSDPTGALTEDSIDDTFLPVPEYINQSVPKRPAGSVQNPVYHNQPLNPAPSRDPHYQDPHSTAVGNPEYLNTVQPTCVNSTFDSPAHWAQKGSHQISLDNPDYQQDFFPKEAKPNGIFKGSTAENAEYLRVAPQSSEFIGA
Test: CellTiter-Glo proliferation, Ba/F3-FL-EGFR-L858R
Type: cell-based
Details: 72 hours, read-out: Ba/F3-FL-EGFR-L858R IC50/nM
Quantity Name: GI50 (nM)

Worked examples, 2 molecules total:
Molecule	Assay Value
CC(C)c1ccc(N2CC(N(C)S(C)(=O)=O)C2)c2cnc(Nc3ccnc(-c4cnn(S(=O)(=O)C5CC5)c4)n3)cc12	14
CC(C)c1ccc(N2CC(CS(C)(=O)=O)C2)c2cnc(Nc3ccnc(-c4cnn(S(=O)(=O)C5CCOC5)c4)n3)cc12 (stereo not shown)	42

A = CCCS(=O)(=O)C[C@H]1CN(c2ccc(C(C)C)c3cc(Nc4ccnc(-c5cnn(S(=O)(=O)C6CC6)c5)n4)ncc23)[C@@H]1C
B = CCS(=O)(=O)N[C@H]1CN(c2ccc(C(C)C)c3cc(Nc4ccnc(N5CCC(OC)C(F)C5)n4)ncc23)[C@@H]1C (stereo partly shown)
Task: Which entry shows the lesser value of GI50 here, A or B ? Write down the label attached to your selection.
Result: B

* * *

Molecular target: UniProt P00533
Assay: MSA (Mobility Shift Assay) kinase activity, EGFR wild type
Assay type: biochemical
Conditions: read-out: EGFR wt/ IC50/nM
Quantity Name: IC50

Here are 8 molecules together with their reported answers.
Molecule	IC50
COc1cccc(-c2nccc(Nc3cc4c(C(C)C)ccc(N5CC(CS(C)(=O)=O)C5)c4cn3)n2)n1 [Compound H2]	> 100 nM
CC(C)c1ccc(N2CC(CP(C)(C)=O)C2)c2cnc(Nc3ccnc(N4CCC(O)C(F)C4)n3)cc12 (stereo not drawn) [Compound P9]	> 100 nM
CC(C)c1ccc(N2CC(NS(C)(=O)=O)C2)c2cnc(Nc3ccnc(N4CCC(O)CC4)c3)nc12 [Compound P6]	> 100 nM
CC(C)c1ccc(N2CC(C[S+](C)[O-])C2)c2cnc(Nc3ccnc(N4CCC(O)C(F)C4)n3)cc12 (stereo not drawn) [Compound P17]	> 100 nM
CC(C)n1c(=O)cc(N2CC(CS(C)(=O)=O)C2)c2cnc(Nc3ccnc(N4CCC(O)CC4)n3)cc21 [Compound P13]	> 100 nM
CC(C)c1ccc(N2CC(c3cscn3)C2)c2cnc(Nc3ccnc(N4CCC(O)C(F)C4)n3)cc12 (stereo not drawn) [Compound P18]	> 100 nM
CC(C)c1ccc(N2CC(c3cccnc3)C2)c2cnc(Nc3ccnc(N4CCC(O)C(F)C4)n3)cc12 (stereo not drawn) [Compound P12]	> 100 nM
CC(C)c1ccc(N2CC(CS(C)(=O)=O)C2)c2cnc(Nc3ccnc(-c4cnn(S(=O)(=O)C5CCCCC5)c4)n3)cc12 [Compound H9]	> 100 nM

Task: Quickly give me recorded IC50 for CC(C)c1ccc(N2CC(CS(C)(=O)=O)C2(C)C)c2cnc(Nc3ccnc(N4CCC(O)C(F)C4)n3)cc12 (stereo not drawn) [Compound P8]
Result: > 100 nM

* * *

Molecular target: Ba/F3-FL-EGFR-L858R (Homo sapiens, UniProt P00533, L858R, cells depend on it)
Assay: CellTiter-Glo proliferation, Ba/F3-FL-EGFR-L858R
Assay type: cell-based
Conditions: 72 hours, read-out: Ba/F3-FL-EGFR-L858R IC50/nM
Quantity Name: GI50 (nM)

Molecule	Assay Value
CC(C)c1ccc(N2C[C@H](CS(C)(=O)=O)[C@H]2C)c2cnc(Nc3ccnc(-c4cnn(S(C)(=O)=O)c4)n3)cc12 [Compound H30]	10

P = CC(C)c1ccc(N2CC(N(C)S(C)(=O)=O)C2)c2cnc(Nc3ccnc(N4CC[C@@H](O)[C@@H](F)C4)n3)cc12 [Compound P39a]
Q = CC(C)c1ccc(N2CC(CS(C)(=O)=O)C2)c2cnc(Nc3ccnc(-c4cnn(S(=O)(=O)C5(C)CC5)c4)n3)cc12 [Compound H18]
Task: Short answer wanted: higher GI50, P or Q ? # answer = label of selected item
Result: Q
